Source listed as patent US20240216513A1.

EXPERIMENT: BTK FAC plasma stability assay, PBS buffer arm
Type: physicochemical
CONDITION_DETAILS: incubation to 24 h
READOUT: Plasma stability (h) PBS

Query: Output Plasma stability (h) PBS of CCCCCCCCCCCN(C(=O)CCCCCCCCCC(=O)O)C(CCC(=O)NCCOCCOCCOCCOCCOCCOCCOCCOCCOCCOCCOCCOCCC(=O)NCCC(=O)OC(C)(C)c1ccc(C(=O)Nc2cc(F)cc(-c3ncnc4[nH]c(-c5ccc(CCN6CCC7(CC6)CCN(C(=O)c6ccc(OC)c(N8CCC(=O)NC8=O)c6)CC7)cc5)cc34)c2C)c(F)c1)C(=O)O (stereo not drawn) [Example A12]
Response: >48 h

Query: Entry CCCCCCCCCCCN(C(=O)CCCCCCCCCC(=O)O)C(CCC(=O)NCCOCCOCCOCCOCCOCCOCCOCCOCCOCCOCCOCCOCCC(=O)NCc1ccc(C(=O)OC(C)(C)c2ccc(C(=O)Nc3cc(F)cc(-c4ncnc5[nH]c(-c6ccc(CCN7CCC8(CC7)CCN(C(=O)c7ccc(OC)c(N9CCC(=O)NC9=O)c7)CC8)cc6)cc45)c3C)c(F)c2)cn1)C(=O)O (stereo not drawn) [Example A25] needs its Plasma stability (h) PBS filled in; supply it.
Response: >48 h

Query: Give me measured Plasma stability (h) PBS, please, for this molecule: CCCCCCCCCCCN(C(=O)CCCCCCCCCC(=O)O)C(CCC(=O)NCCOCCOCCOCCOCCOCCOCCOCCOCCOCCOCCOCCOCCOCCOCCOCCOCCOCCOCCOCCOCCOCCOCCOCCOCCC(=O)NCC(=O)OC(C)(C)c1ccc(C(=O)Nc2cc(F)cc(-c3ncnc4[nH]c(-c5ccc(CCN6CCC7(CC6)CCN(C(=O)c6ccc(OC)c(N8CCC(=O)NC8=O)c6)CC7)cc5)cc34)c2C)c(F)c1)C(=O)O (stereo not drawn) [Example A32]
Response: >48 h
